Species on record: Rattus norvegicus
method_description: DrugMatrix - Regimen: Daily Repeat
Format: toxicity, organism-based, Sprague-Dawley
Set-up: regimen Daily Repeat, gender Male, age 6-8 weeks
condition_summary: in vivo, po, 0 mg/kg, 72 h, tissue Plasma, route oral GAVAGE, dose level Control, time 3 day, vehicle 100 % WATER
measured_metric: POTASSIUM (MEQ/L)
Lab book: enter the figure in MEQ/L, no units written.

C[N+](C)(C)CCOC(N)=O.[Cl-] :: 6.25
CC(Cl)(Cl)Cl :: 5.99

--- query ---
I am curious: what POTASSIUM value has been reported for Cc1cn([C@H]2C=C[C@@H](CO)O2)c(=O)[nH]c1=O ?
6.25
